assay: Pharmacokinetic analysis in plasma and eye fluids after oral administration; type: in vivo, mice; conditions: C57BL/6J, mouse; Aqueous Humor, single oral administration at 400 mg/kg, male mice
OBSERVATION TYPE: Tmax (min)
Could you give me the number in min? Just the number is fine.

Request: What does the record list as Tmax for COC1=C(OC)C(=O)C(CCCCCCCCCCO)=C(C)C1=O [Compound IA, Idebenone] ?
Response: 15

###

assay: Pharmacokinetic analysis in plasma and eye fluids after oral administration; format: in vivo, mice; details: C57BL/6J, mouse; Aqueous Humor, single oral administration at 400 mg/kg, male mice; read-out: AUC0-6h
OBSERVATION TYPE: AUC(0-t) (ng·h/mL)
Could you give me the number in ng·h/mL? Just the number is fine.

Request: What does the record list as AUC(0-t) for COC1=C(OC)C(=O)C(CCCCCCCCCCO)=C(C)C1=O [Compound IA, Idebenone] ?
Response: 62.6

###

assay: Pharmacokinetic analysis in plasma and eye fluids after oral administration; assay type: in vivo, mice; settings: C57BL/6J, mouse; Plasma, single oral administration at 400 mg/kg, male mice; read-out: AUC0-6h
OBSERVATION TYPE: AUC(0-t) (ng·h/mL)
Could you give me the number in ng·h/mL? Just the number is fine.

Request: What does the record list as AUC(0-t) for COC1=C(OC)C(=O)C(CCCCCCCCCCO)=C(C)C1=O ?
Response: 1860

###

test: Pharmacokinetic analysis in plasma and eye fluids after oral administration; assay type: in vivo, mice; conditions: C57BL/6J, mouse; Plasma, single oral administration at 400 mg/kg, male mice
OBSERVATION TYPE: Cmax (ng/mL)
Could you give me the number in ng/mL? Just the number is fine.

Request: What does the record list as Cmax for COC1=C(OC)C(=O)C(CCCCCCCCCCO)=C(C)C1=O [Compound IA, Idebenone] ?
Response: 1070

###

Assay: Pharmacokinetic analysis in plasma and eye fluids after oral administration
Assay type: in vivo, mice
Conditions: C57BL/6J, mouse; Plasma, single oral administration at 400 mg/kg, male mice
Method: Pharmacokinetic analysis of test compounds after oral administration aims to determine its bioavailability and clearance in the plasma and in the eye fluids (aqueous and vitreous humor). The test compounds are quantified in the plasma and in the aqueous and vitreous humor after acute and repeated treatment (with different routes of administration). The time-dependent concentration is then determined and pharmacokinetic parameters (Cmax, AUC0-t, tmax) are calculated. […]
OBSERVATION TYPE: half-life (h)
Could you give me the number in h? Just the number is fine.

Request: What does the record list as half-life for COC1=C(OC)C(=O)C(CCCCCCCCCCO)=C(C)C1=O ?
Response: 1.7

###

experiment: Literature plasma and brain levels after oral dosing (Torii et al., Nagai et al.); format: in vivo; settings: rat, brain / plasma; rats, oral 10 mg/kg; read-out: ratio of brain vs plasma levels
OBSERVATION TYPE: Kp

Request: What does the record list as Kp for COC1=C(OC)C(=O)C(CCCCCCCCCCO)=C(C)C1=O ?
Response: ~0.01

###

experiment: Pharmacokinetic analysis in plasma and eye fluids after oral administration; format: in vivo, mice; conditions: C57BL/6J, mouse, aqueous humor / plasma; single oral 400 mg/kg, male mice; read-out: extent of exposure in the aqueous humor relative to plasma
OBSERVATION TYPE: Kp

Request: What does the record list as Kp for COC1=C(OC)C(=O)C(CCCCCCCCCCO)=C(C)C1=O ?
Response: ~0.03
